The reported measurements were obtained from the Immune Epitope Database (IEDB).

- Tgt: HLA-B*51:01
- Protocol Description: IEDB peptide-MHC binding, purified MHC/competitive/radioactivity; filed as Kd, often an IC50 or EC50 that approximates it; bounds were set here for any values at or beyond the usual limits of such assays
- Measurement Parameters: source organism: Mammarenavirus lassaense
Measured Parameter: pKd
Keep in mind that pKd stands for -log10 of concentration in molar terms.

**Query** Could you share which pKd value was measured for `MPDCGMSVLA` ?
**Result** 5.04

* * *

- Tgt: HLA-A*11:01
- Protocol Description: IEDB peptide-MHC binding, purified MHC/direct/fluorescence; filed as Kd, often an IC50 or EC50 that approximates it; bounds were set here for any values at or beyond the usual limits of such assays
- Measurement Parameters: source organism: Enterobacteria phage f1
Measured Parameter: Kd

**Query** Find the measured Kd: item `TFMYVFSTF` , target or system HLA-A*11:01.
**Result** ≥ 20 µM

* * *

- Tgt: HLA-B*08:01
- Protocol Description: IEDB peptide-MHC binding, purified MHC/direct/fluorescence; filed as Kd, often an IC50 or EC50 that approximates it; bounds were set here for any values at or beyond the usual limits of such assays
- Measurement Parameters: source organism: Influenza A virus H3N2
Measured Parameter: pKd
Lab note: report pKd as minus log10 of the concentration in molar units, number only.

**Query** Entry under review: `WIPKRNRSI` . Reported pKd?
**Result** 7.74

* * *

- Tgt: HLA-A*11:01
- Protocol Description: IEDB peptide-MHC binding, purified MHC/direct/fluorescence; filed as Kd, often an IC50 or EC50 that approximates it; bounds were set here for any values at or beyond the usual limits of such assays
- Measurement Parameters: source organism: Marburg virus - Musoke, Kenya, 1980
pKd: −log10 of the molar value.
Measured Parameter: pKd

**Query** // fetch HLA-A*11:01 pKd for `YLAPSYRNF`
**Result** ≤ 4.70

* * *

- Tgt: HLA-A*69:01
- Protocol Description: IEDB peptide-MHC binding, purified MHC/direct/fluorescence; filed as Kd, often an IC50 or EC50 that approximates it; bounds were set here for any values at or beyond the usual limits of such assays
- Measurement Parameters: source organism: Influenza A virus (A/swine/Hong Kong/5190/99(H3N2))
pKd: −log10 of the molar value.
Measured Parameter: pKd

**Query** Please provide the recorded pKd for `GYMFESKSM` , tested on HLA-A*69:01.
**Result** ≤ 4.70

* * *

- Tgt: HLA-A*33:01
- Protocol Description: IEDB peptide-MHC binding, purified MHC/competitive/radioactivity; filed as Kd, often an IC50 or EC50 that approximates it; bounds were set here for any values at or beyond the usual limits of such assays
- Measurement Parameters: source organism: Dengue virus 1 Brazil/97-11/1997
Measured Parameter: pKd
Please express pKd as -log10 of the molar concentration.

Some entries whose results are on file:
Sequence Entry	pKd
TYSDPLALR	8.04
PMFAVGLLFR	7.04

Next item in the queue.
**Query** Form field: reported pKd of `FMNEDHWFSR`
**Result** 7.88

* * *

- Tgt: HLA-B*48:01
- Protocol Description: IEDB peptide-MHC binding, purified MHC/direct/fluorescence; filed as Kd, often an IC50 or EC50 that approximates it; bounds were set here for any values at or beyond the usual limits of such assays
- Measurement Parameters: source organism: Camelpox virus M-96
pKd: −log10 of the molar value.
Measured Parameter: pKd

**Query** Could you share what pKd was measured for `ETIEILRNY` , tested on HLA-B*48:01?
**Result** ≤ 4.70
